src = paper PMC5943490

tested.on: OsALMT4 (Oryza sativa)
Construct: full-length, constitutively over-expressed in transgenic rice (homozygous line OX5)
Sequence (Q0JPI1 1-524): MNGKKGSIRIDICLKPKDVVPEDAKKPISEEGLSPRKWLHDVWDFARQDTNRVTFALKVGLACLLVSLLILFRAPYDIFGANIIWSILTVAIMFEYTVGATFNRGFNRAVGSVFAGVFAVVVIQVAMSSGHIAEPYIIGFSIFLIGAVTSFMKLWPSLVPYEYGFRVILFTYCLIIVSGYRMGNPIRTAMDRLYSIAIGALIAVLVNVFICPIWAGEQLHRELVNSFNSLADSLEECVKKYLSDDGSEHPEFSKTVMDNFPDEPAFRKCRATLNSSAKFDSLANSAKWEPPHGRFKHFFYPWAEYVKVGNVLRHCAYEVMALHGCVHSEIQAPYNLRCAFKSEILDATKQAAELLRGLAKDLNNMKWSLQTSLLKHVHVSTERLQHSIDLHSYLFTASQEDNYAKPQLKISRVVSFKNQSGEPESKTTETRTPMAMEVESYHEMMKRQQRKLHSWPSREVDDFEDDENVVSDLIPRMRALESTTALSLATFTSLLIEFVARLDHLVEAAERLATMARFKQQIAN
method.description: malate efflux from intact OX5 seedlings, concentration series
test.conditions: read-out: Ki (half maximum inhibition)
property.label: pIC50
Convention used: pIC50 is expressed as -log10 of the molar concentration.

**Q:** Under OsALMT4 (Oryza sativa), report pIC50 for O=C(O)c1ccccc1O [SA, salicylic acid]
**A:** 4.60
